# assay.target: CK1d (Homo sapiens)
# Construct: purchased ReactionBiology
# Sequence (P48730 whole entry): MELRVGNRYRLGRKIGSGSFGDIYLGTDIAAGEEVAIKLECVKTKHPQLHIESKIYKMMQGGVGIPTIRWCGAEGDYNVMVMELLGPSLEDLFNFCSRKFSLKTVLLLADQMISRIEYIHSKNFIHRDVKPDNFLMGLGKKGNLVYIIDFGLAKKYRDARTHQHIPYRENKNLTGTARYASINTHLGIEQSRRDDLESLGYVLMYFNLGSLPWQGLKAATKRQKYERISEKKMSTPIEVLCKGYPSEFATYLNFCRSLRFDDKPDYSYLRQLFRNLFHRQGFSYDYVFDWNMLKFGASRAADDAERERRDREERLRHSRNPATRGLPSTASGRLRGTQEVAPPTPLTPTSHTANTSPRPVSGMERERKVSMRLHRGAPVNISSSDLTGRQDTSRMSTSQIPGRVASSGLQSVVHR
# assay.details: Kinase activity test (ReactionBiology), % enzyme activity relative to DMSO
# Format: biochemical
# stated.conditions: CK1d; 10 uM; replicate Data 1; read-out: % Enzyme Activity (relative to DMSO controls), Data 1
Recorded remaining activity at 10 µM for the following molecules

| molecule | remaining activity at 10 µM, % |
| --- | --- |
| Cc1ccc(C(=O)c2cc(O)c(O)c([N+](=O)[O-])c2)cc1 [Tolcapone, reference compound] | 33.2 |
| CC(=O)O[C@H]1C[C@@]2(C)[C@@H](C[C@@H](O)[C@H]3[C@@]4(C)CC[C@@H](O)[C@@H](C)[C@@H]4CC[C@@]32C)/C1=C(\CCC=C(C)C)C(=O)O | 113 |
| Cc1nc(Nc2ncc(C(=O)Nc3c(C)cccc3Cl)s2)cc(N2CCN(CCO)CC2)n1 [Dasatinib, reference compound] | 93.2 |
| NC(=O)c1cccnc1 [Niacinamide, reference compound] | 97.9 |
| CC(C)(C)NC(=O)[C@@H]1C[C@@H]2CCCC[C@@H]2CN1C[C@@H](O)[C@H](Cc1ccccc1)NC(=O)[C@H](CC(N)=O)NC(=O)c1ccc2ccccc2n1 [Saquinavir, reference compound] | 123 |
| CCN(CC)Cc1cc(Nc2ccnc3cc(Cl)ccc23)ccc1O [Amodiaquine, reference compound] | 70.5 |

---

# assay.target: EPHB4 (Homo sapiens, UniProt P54760)
# Construct: purchased ReactionBiology
# Sequence (P54760 16-987): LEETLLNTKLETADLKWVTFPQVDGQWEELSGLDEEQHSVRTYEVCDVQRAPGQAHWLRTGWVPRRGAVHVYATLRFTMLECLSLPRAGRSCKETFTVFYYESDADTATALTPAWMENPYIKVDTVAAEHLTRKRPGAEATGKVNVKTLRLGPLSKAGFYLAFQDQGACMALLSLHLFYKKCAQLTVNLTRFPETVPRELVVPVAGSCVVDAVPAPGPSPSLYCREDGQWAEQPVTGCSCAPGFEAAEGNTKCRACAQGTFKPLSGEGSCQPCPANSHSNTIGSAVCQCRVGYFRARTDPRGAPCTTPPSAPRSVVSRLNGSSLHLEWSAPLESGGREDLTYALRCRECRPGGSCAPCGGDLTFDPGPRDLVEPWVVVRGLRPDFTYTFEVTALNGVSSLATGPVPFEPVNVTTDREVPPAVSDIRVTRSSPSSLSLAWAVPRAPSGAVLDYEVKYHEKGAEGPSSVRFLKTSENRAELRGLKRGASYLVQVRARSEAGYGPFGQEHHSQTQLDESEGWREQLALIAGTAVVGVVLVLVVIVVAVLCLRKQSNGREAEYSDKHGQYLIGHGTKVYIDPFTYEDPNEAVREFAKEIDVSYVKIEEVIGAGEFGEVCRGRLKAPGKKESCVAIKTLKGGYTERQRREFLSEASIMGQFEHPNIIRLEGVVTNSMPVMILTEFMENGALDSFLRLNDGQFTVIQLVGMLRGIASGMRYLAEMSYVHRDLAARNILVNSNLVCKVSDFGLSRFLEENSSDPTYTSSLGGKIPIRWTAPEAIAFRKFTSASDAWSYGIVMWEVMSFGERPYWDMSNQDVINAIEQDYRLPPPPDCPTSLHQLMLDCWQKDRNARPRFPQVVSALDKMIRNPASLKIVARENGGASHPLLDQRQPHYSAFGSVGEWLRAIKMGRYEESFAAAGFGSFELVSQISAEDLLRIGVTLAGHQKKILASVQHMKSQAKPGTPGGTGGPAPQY
# assay.details: Kinase activity test (ReactionBiology), % enzyme activity relative to DMSO
# Assay type: biochemical
# stated.conditions: EPHB4; 10 uM; replicate Data 1; read-out: % Enzyme Activity (relative to DMSO controls), Data 1
Output Criterion met for records whose remaining activity at 10 µM is lower than 90%, Criterion not met for records at or above 90%.

| molecule | classification |
| --- | --- |
| O=C(O)c1ccccc1O | Criterion not met |
| Oc1cc(Cl)ccc1Oc1ccc(Cl)cc1Cl [Triclosan, reference compound] | Criterion not met |
| CC(=O)O[C@H]1C[C@@]2(C)[C@@H](C[C@@H](O)[C@H]3[C@@]4(C)CC[C@@H](O)[C@@H](C)[C@@H]4CC[C@@]32C)/C1=C(\CCC=C(C)C)C(=O)O | Criterion not met |
| Nc1ncnc2c1ncn2[C@@H]1O[C@H](CO)[C@@H](O)[C@H]1O [Adenosine, reference compound] | Criterion met |

---

# assay.target: NEK2 (Homo sapiens, UniProt P51955)
# Construct: purchased ReactionBiology
# Sequence (P51955 whole entry): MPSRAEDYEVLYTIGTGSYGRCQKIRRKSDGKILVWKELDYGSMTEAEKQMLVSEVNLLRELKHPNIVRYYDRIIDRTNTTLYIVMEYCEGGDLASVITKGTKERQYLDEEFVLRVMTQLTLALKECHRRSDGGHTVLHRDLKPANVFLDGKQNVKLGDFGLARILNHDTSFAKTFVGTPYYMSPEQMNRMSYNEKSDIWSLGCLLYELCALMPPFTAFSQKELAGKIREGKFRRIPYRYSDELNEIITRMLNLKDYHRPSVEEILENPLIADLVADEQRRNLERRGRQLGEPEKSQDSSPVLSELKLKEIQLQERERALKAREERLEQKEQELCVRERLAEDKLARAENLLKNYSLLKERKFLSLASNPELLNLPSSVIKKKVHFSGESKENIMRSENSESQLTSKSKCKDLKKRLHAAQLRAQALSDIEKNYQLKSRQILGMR
# assay.details: Kinase activity test (ReactionBiology), % enzyme activity relative to DMSO;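 on % Enzyme activity at 1μM: FDA-approved drugs chosen by structure-based repositioning, each screened at 10 or 1 µM for kinase activity, expressed as percent of DMSO controls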
# Format: biochemical
# stated.conditions: NEK2; compound 1μM; relative to DMSO controls; read-out: % Enzyme activity at 1μM

| molecule | remaining activity at 1 µM, % |
| --- | --- |
| N[C@@H](Cc1cc(I)c(Oc2cc(I)c(O)c(I)c2)c(I)c1)C(=O)O [Thyroxine, reference compound] | 90.2 |
| Nc1ncnc2c1ncn2[C@@H]1O[C@H](CO)[C@@H](O)[C@H]1O [Adenosine, reference compound] | 96.1 |
| Nc1ccc2cc3ccc(N)cc3nc2c1 [Proflavine, reference compound] | 104 |
| CN1CCN(CCCN2c3ccccc3Sc3ccc(Cl)cc32)CC1 [Prochlorperazine, reference compound] | 70.1 |
| CC/C(=C(/CC)c1ccc(O)cc1)c1ccc(O)cc1 [Diethylstilbestrol, reference compound] | 97.9 |

---

# assay.target: EPHB4 (Homo sapiens, UniProt P54760)
# Construct: purchased ReactionBiology
# assay.details: Kinase activity test (ReactionBiology), % enzyme activity relative to DMSO
# Assay type: biochemical
# stated.conditions: EPHB4; 10 uM; replicate Data 1; read-out: % Enzyme Activity (relative to DMSO controls), Data 1

| compound | readout.units | remaining activity at 10 µM |
| --- | --- | --- |
| CC(C)c1nc(CN(C)C(=O)N[C@H](C(=O)N[C@@H](Cc2ccccc2)C[C@H](O)[C@H](Cc2ccccc2)NC(=O)OCc2cncs2)C(C)C)cs1 [Ritonavir, reference compound] | % | 97.2 |
| Cc1cccc(C)c1OCC(=O)N[C@@H](Cc1ccccc1)[C@@H](O)C[C@H](Cc1ccccc1)NC(=O)[C@H](C(C)C)N1CCCNC1=O [Lopinavir, reference compound] | % | 89 |
| NC(=O)c1cccnc1 [Niacinamide, reference compound] | % | 68.3 |
| NCCCCCC(=O)O | % | 92.2 |

---

Recorded remaining activity at 1 µM for the following molecules
# assay.target: DAPK1 (Homo sapiens)
# Construct: purchased ReactionBiology
# Sequence (P53355 whole entry): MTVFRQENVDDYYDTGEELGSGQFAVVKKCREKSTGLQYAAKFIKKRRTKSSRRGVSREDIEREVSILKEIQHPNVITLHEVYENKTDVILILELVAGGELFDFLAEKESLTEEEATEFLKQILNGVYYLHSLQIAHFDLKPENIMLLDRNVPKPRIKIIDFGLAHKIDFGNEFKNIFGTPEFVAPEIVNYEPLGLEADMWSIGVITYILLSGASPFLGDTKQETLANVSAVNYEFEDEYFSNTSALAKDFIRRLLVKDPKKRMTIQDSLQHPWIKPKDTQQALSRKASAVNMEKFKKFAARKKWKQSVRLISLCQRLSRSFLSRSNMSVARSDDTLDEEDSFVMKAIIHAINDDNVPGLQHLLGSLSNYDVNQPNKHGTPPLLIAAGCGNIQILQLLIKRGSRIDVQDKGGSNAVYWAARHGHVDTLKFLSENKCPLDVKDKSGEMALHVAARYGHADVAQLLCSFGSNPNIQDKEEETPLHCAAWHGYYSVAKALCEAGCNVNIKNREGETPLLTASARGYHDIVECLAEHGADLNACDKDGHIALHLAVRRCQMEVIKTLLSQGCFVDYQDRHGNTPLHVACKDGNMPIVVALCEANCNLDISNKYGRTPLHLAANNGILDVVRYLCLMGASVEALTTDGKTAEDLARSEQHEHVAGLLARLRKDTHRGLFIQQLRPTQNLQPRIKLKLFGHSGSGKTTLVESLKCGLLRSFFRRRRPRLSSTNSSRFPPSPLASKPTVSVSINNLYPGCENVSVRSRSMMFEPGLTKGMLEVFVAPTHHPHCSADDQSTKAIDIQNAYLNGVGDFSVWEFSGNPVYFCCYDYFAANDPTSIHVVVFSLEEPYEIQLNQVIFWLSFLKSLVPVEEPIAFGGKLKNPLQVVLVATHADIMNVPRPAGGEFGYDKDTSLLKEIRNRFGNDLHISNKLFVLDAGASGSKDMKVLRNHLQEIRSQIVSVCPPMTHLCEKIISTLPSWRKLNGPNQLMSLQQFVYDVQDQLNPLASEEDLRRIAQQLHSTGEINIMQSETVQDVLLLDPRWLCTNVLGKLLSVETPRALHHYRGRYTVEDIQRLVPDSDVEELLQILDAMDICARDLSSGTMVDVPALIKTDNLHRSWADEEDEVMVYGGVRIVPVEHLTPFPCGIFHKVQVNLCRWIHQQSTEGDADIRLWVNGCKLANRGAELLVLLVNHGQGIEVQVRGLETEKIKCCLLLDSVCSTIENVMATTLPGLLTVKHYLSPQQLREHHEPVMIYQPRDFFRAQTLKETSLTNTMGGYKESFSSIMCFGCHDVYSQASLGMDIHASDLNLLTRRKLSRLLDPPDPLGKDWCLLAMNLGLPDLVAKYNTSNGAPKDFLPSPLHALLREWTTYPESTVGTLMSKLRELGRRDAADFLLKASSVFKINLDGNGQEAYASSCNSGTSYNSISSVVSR
# assay.details: Kinase activity test (ReactionBiology), % enzyme activity relative to DMSO
# Assay type: biochemical
# stated.conditions: DAPK1; 1 uM; replicate Data 2; read-out: % Enzyme Activity (relative to DMSO controls), Data 2
assay.metric: remaining activity at 1 µM

| molecule | result |
| --- | --- |
| CC(=O)O[C@H]1C[C@@]2(C)[C@@H](C[C@@H](O)[C@H]3[C@@]4(C)CC[C@@H](O)[C@@H](C)[C@@H]4CC[C@@]32C)/C1=C(\CCC=C(C)C)C(=O)O [Fusidic acid] | 90.5% |
| Nc1ncnc2c1ncn2[C@@H]1O[C@H](CO)[C@@H](O)[C@H]1O [Adenosine, reference compound] | 95.9% |
| CC(C)c1nc(CN(C)C(=O)N[C@H](C(=O)N[C@@H](Cc2ccccc2)C[C@H](O)[C@H](Cc2ccccc2)NC(=O)OCc2cncs2)C(C)C)cs1 [Ritonavir, reference compound] | 90.4% |

---

Recorded % Enzyme Activity (relative to DMSO controls), Data 1 for the following compounds
# assay.target: EPHB4 (Homo sapiens)
# Construct: purchased ReactionBiology
# Sequence (P54760 16-987): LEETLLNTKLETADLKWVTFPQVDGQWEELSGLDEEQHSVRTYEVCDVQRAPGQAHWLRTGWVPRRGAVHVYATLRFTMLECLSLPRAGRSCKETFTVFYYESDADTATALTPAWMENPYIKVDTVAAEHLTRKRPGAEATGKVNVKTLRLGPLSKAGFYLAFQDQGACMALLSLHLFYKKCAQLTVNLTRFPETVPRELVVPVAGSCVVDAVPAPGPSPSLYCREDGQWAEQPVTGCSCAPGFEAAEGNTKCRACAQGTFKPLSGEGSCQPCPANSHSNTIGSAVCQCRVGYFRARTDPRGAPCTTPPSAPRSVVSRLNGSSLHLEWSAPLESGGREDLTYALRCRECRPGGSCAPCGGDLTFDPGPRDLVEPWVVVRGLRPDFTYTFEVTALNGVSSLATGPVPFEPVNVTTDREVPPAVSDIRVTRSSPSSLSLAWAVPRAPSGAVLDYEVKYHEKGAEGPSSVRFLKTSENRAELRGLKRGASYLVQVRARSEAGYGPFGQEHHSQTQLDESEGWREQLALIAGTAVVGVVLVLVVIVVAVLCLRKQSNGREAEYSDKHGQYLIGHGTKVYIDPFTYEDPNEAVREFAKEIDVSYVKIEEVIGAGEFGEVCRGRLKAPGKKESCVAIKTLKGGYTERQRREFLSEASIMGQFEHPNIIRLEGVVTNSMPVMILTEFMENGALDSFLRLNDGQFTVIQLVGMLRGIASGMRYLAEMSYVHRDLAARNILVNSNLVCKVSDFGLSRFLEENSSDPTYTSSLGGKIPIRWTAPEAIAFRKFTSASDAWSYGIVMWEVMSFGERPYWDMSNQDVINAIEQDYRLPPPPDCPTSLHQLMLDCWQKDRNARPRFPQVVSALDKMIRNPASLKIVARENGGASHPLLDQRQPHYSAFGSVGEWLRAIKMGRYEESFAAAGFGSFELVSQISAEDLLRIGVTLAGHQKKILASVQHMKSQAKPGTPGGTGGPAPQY
# assay.details: Kinase activity test (ReactionBiology), % enzyme activity relative to DMSO
# Format: biochemical
# stated.conditions: EPHB4; 1 uM; replicate Data 1
assay.metric: % Enzyme Activity (relative to DMSO controls), Data 1 (%)

| compound | assay.target | numeric.result |
| --- | --- | --- |
| COc1ccc2c3c1O[C@H]1C[C@@H](O)C=C[C@@]31CCN(C)C2 | EPHB4 (Homo sapiens) | 104.73 |
| CS(=O)(=O)c1ccc(C2=C(c3ccccc3)C(=O)OC2)cc1 | EPHB4 (Homo sapiens) | 92.91 |
| C/C(O)=C(\C#N)C(=O)Nc1ccc(C(F)(F)F)cc1 [Teriflunomide] | EPHB4 (Homo sapiens) | 102.27 |
| O=C1Nc2ccc(Cl)cc2[C@@](C#CC2CC2)(C(F)(F)F)O1 | EPHB4 (Homo sapiens) | 93.6 |
| C[C@]12CCC(=O)C=C1CC[C@@H]1[C@@H]2[C@@H](O)C[C@@]2(C)[C@H]1CC[C@]2(O)C(=O)CO [Hydrocortisone] | EPHB4 (Homo sapiens) | 105.83 |
| CCCCC1C(=O)N(c2ccccc2)N(c2ccccc2)C1=O | EPHB4 (Homo sapiens) | 102.42 |
| O=C1c2cccc3c2[C@H](CCC3)CN1[C@@H]1CN2CCC1CC2 | EPHB4 (Homo sapiens) | 97.96 |
| C[C@H]1O[C@@H](O[C@H]2[C@@H](O)C[C@H](O[C@H]3[C@@H](O)C[C@H](O[C@H]4CC[C@@]5(C)[C@H](CC[C@@H]6[C@@H]5C[C@@H](O)[C@]5(C)[C@@H](C7=CC(=O)OC7)CC[C@]65O)C4)O[C@@H]3C)O[C@@H]2C)C[C@H](O)[C@@H]1O | EPHB4 (Homo sapiens) | 99.88 |
| CC(=O)Nc1ccc(O)cc1 | EPHB4 (Homo sapiens) | 95.30 |
